Experiment: Cholera quorum inducers, light production in absence of autoinducers, BH1578 strain, dry powder dose (AID 652239)
Conditions: V. cholerae BH1578 lux luminescence induction, 6 h; at 100 µM (top of the series)
Calls of active or inactive are those of the source. The rule behind the calls is not given here.
value-kind: activation

{"compound": "O=C(Nc1nnc(-c2cccnc2)o1)C1CCC1", "reading": "-0.001% (inactive)"}
{"compound": "CCn1nnnc1NC(C)c1ccc(N2CCCC2)cc1 (centres undefined)", "reading": "11.5% (inactive)"}
{"compound": "COc1ccc(-c2nnc(NC(=O)C3CCCCC3)o2)cc1", "reading": "17.9% (inactive)"}
{"compound": "Cc1ccc2cc3c(NC(=O)c4ccc(C)o4)nn(C)c3nc2c1", "reading": "1.77% (inactive)"}
{"compound": "O=C(Nc1nnc(-c2ccncc2)o1)C1CCC1", "reading": "0.028% (inactive)"}
{"compound": "O=C(Nc1nnc(-c2ccc3c(c2)OCCO3)o1)C(F)(F)c1ccccc1", "reading": "-0.004% (inactive)"}
{"compound": "CN(C)/C=N/c1nnc(-c2ccc3c(c2)OCCO3)o1", "reading": "0.022% (inactive)"}
{"compound": "CCn1nnnc1/N=C/c1ccc(N2CCCCC2)cc1", "reading": "0.106% (inactive)"}
{"compound": "Cn1nc(NC(=O)c2ccco2)c2cc3ccc(C(C)(C)C)cc3nc21", "reading": "0% (inactive)"}
{"compound": "c1ccc(CNc2nnc(-c3ccc4c(c3)OCCO4)o2)cc1", "reading": "0.001% (inactive)"}

Data request: Looking for the measured activation of "COc1cccc(-c2nnc(NC(=O)C3CCCCC3)o2)c1" , can you help?
Data returned: -0.002% (inactive)

Data request: Subsequent entry: "CC(C)c1ccc2cc3c(NC(=O)c4ccco4)nn(C)c3nc2c1"
Data returned: 0.153% (inactive)

Data request: Subsequent entry: "COc1ccc(-c2nnc(NC(C)=O)o2)cc1"
Data returned: 0.028% (inactive)

Data request: Subsequent entry: "Cc1ccc2cc3c(NC(=O)Cc4ccco4)nn(C)c3nc2c1"
Data returned: 0.407% (inactive)
